src = the NIST ThermoML archive (doi:10.1021/je9010486)

- assay.remarks: cn = amount concentration of the nth substance listed, in mol/dm3
- condition.info: 303.15 K; 101 kPa; Liquid; c1 = 0.9
Below, each of the compounds is paired with its reported viscosity value.

compound: OC[C@@H](O)[C@@H](O)CO [meso-1,2,3,4-butanetetrol] + O
readout.unit: mPa·s
viscosity: 1.087

compound: OC[C@@H](O)[C@@H](O[C@H]1O[C@H](CO)[C@@H](O)[C@H](O)[C@H]1O)[C@H](O)[C@@H](O)CO [4-O-α-D-glucopyranosyl-D-glucitol] + O
readout.unit: mPa·s
viscosity: 1.947

compound: OC[C@@H](O)[C@H](O)[C@@H](O)CO [xylitol] + O
readout.unit: mPa·s
viscosity: 1.178

compound: OC[C@@H](O)[C@@H](O)[C@H](O)[C@@H](O)CO [D-sorbitol] + O
readout.unit: mPa·s
viscosity: 1.26
